Test: qHTS for Inhibitors of Inflammasome Signaling: IL-1-beta AlphaLISA Primary Screen; further: on the % scale 0 is the no-effect control and ±100 the full control effect
Settings: THP-1 LPS/ATP IL-1B secretion, 16 h, at 57.5 µM, stronger effect = lower value
The whole screen tested about 360,000 compounds, of which about 17,000 (4.7%) were called active. Not shown: some 5% with an inconclusive outcome. The sample as a whole holds a higher share of actives than the screen did.
parameter.measured: activity change (%)
The reply should be a number in %, with the unit left off.

Cc1ccc(OC(=O)N(C)C[C@@H]2OCc3cnnn3CCCC(=O)N([C@H](C)CO)C[C@@H]2C)cc1    37.1
CCOC(=O)CNC(=O)N1Cc2cc(N3CCCCC3)ccc2-n2nncc2C1    -5.99
Cc1ncoc1C(=O)NCC1=C(c2cccc3ccccc23)C[C@@H]2CC[C@H]1N2Cc1ccco1    -7.11
CCC/C(=N\O)c1c[nH]c2ccccc12    23.8

Look up activity change: CC=C(C)C(=O)OC1CCN2CC=C(COC(=O)C(O)(C(C)OC)C(C)(C)O)C12 (stereo not given) 12.9

Look up activity change: Cc1cc(C)c2c(c1)NP(=S)(c1ccccc1)N2 (stereo not given) -11.4

Look up activity change: "Cn1c(C(=O)N2CCC(C(=O)N3CCC4(CC3)OCCO4)CC2)cc2sccc21" -11.3

Look up activity change: "O=C(c1cc2nc(-c3ccccc3)cc(-c3ccccc3)n2n1)N1CCC2(CC1)OCCO2" -87.9

Look up activity change: "c1ccc(C(CN2CCCCC2)c2ccccc2)cc1" -8.96

Look up activity change: "CC(C)c1ccc(OCC(=O)N2CCCN(C)CC2)cc1" -17.5

---

Test: qHTS for Inhibitors of Inflammasome Signaling: IL-1-beta AlphaLISA Primary Screen
Details: THP-1 LPS/ATP IL-1B secretion, 16 h, at 57.5 µM
Hit rate of the full screen: of about 360,000 compounds, about 17,000 (4.7%) were called active. Another 5% or so got no clear call; they are omitted. Rule as the data show it: active = activity change below about -50%; inconclusive = mostly about -30% to -49%; inactive = weaker than that. The sample as a whole holds a higher share of actives than the screen did.
I would appreciate it if you answered using one of these outcomes: Yes (active), No (inactive)

Answered examples (6):
NCCc1ccc(S(=O)(=O)F)cc1    No
CC(=O)C1(O)CCC2C3CCC4=C(Cl)C(=O)CCC4(C)C3CCC21C (configuration not stated)    No
COC(=O)C[C@H]1CC[C@H]2NC[C@@H](O)COC[C@@H]2O1    No
CC(=CCOc1ccc2ccc(=O)oc2c1)C1=CC(=O)C(C)(C)O1    Yes
CCC1(C)CC(CCNCc2ccc(N(C)C)cc2)(c2ccc(F)cc2)CCO1 (configuration not stated)    Yes
O=C(CN1CCCCC1)Nc1ccc(Br)cc1C(=O)c1ccccc1Cl    No

We now examine a further compound.
Call for entry COc1ccc(C2C=C(C)Oc3c2c(=O)oc2ccccc32)cc1OC (configuration not stated) : No
